The reported measurements were obtained from patent US10253007B2.

assay_details: Caco-2 cell monolayer membrane transport assay
condition: human, Caco-2, Recovery rate in mass, Sample-01, Caco-2; A-B; Sample-01
endpoint: recovery (%)
Numeric answer only, unit % assumed.

A selection of reference data follows.
CO[C@H]1C(=O)[C@]2(C)C=C[C@@H](O)[C@](CO)(OC(C)=O)[C@H]2[C@H](OC(=O)c2ccccc2)[C@]2(O)C[C@H](OC(=O)[C@H](O)[C@@H](NC(=O)c3ccccc3)c3ccccc3)C(C)=C1C2(C)C = 76.6
CO[C@H]1C(=O)[C@]2(C)[C@@H](OC(=O)N(C)C)C[C@H]3OC[C@@]3(OC(C)=O)[C@H]2[C@H](OC(=O)c2ccccc2)[C@]2(O)C[C@H](OC(=O)[C@H](O)[C@H](CC(C)C)NC(=O)OC(C)(C)C)C(C)=C1C2(C)C = 71.2
CO[C@H]1C[C@H]2OC[C@@]2(OC(C)=O)[C@H]2[C@H](OC(=O)c3ccccc3)[C@]3(O)C[C@H](OC(=O)[C@H](O)[C@H](CC(C)C)NC(=O)OC(C)(C)C)C(C)=C([C@@H](OC(=O)N(C)C)C(=O)[C@]12C)C3(C)C = 63.9

Here is another compound to look at.
Item under review: "CCSC(=O)O[C@H]1C[C@H]2OC[C@@]2(OC(C)=O)[C@H]2[C@H](OC(=O)c3ccccc3)[C@]3(O)C[C@H](OC(=O)[C@H](O)[C@@H](NC(=O)N(C)C)c4ccccc4)C(C)=C([C@@H](OC)C(=O)[C@]12C)C3(C)C" . Reported recovery? 78.2
